# Tgt: human wild type-CFTR (Homo sapiens, UniProt P13569)
# Sequence (P13569 whole entry): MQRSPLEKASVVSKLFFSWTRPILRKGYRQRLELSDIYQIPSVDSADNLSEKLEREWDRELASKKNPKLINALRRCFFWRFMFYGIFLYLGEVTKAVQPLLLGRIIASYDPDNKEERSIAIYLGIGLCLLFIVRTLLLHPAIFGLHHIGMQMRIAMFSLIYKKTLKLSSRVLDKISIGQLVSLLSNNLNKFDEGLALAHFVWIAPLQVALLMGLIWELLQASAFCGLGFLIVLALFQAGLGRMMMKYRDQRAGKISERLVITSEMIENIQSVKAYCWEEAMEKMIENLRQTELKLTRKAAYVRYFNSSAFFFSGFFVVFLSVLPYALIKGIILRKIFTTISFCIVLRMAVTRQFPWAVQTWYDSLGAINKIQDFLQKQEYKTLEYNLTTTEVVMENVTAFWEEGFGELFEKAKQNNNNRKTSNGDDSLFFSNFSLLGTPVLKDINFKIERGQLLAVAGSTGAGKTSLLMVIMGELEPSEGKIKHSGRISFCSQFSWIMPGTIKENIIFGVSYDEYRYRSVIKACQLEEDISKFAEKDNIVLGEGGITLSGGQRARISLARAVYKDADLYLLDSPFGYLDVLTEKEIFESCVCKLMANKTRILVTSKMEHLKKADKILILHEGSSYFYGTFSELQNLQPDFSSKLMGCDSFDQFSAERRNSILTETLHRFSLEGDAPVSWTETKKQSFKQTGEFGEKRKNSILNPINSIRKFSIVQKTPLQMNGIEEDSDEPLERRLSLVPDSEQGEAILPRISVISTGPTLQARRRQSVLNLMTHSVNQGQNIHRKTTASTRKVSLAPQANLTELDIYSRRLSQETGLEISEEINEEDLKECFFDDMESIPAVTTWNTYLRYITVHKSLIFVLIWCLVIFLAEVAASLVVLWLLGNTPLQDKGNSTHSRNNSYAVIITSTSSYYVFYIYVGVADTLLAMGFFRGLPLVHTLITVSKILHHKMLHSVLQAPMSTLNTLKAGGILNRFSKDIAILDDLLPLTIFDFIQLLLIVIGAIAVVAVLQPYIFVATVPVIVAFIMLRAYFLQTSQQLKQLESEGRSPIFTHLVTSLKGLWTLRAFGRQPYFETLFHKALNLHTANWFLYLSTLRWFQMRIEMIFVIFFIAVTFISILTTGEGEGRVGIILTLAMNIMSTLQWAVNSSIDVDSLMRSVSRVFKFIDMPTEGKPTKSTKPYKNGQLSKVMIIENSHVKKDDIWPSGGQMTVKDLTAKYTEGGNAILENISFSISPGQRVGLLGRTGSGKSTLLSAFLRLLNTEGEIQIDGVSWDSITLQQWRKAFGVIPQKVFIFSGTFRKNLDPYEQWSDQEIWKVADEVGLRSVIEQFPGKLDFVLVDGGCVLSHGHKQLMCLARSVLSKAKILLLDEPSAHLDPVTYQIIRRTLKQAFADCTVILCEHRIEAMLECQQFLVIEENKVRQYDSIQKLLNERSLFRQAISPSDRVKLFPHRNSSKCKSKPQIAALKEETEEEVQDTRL
# Test Method Notes: Cell-based YFP assay
# Design: expressed in transfected cells; host or cells: CHO-K1 (Chinese hamster ovary)
# Condition Context: CHO-K1 cells expressing human wild type-CFTR and YFP-H148Q/I152L; forskolin 20 μM = 100% activity; read-out: Cell-based YFP Assay (EC50) Concentration Range
# Procedure: Forskolin (Tocris cat. #1099), Dimethyl sulfoxide (Sigma cat. #D4540), FLUO star Omega microplate reader (BMG Labtech, Ortenberg, Germany), MARS Data Analysis Software (BMG Labtech), GraphPad Prism 5 (GraphPad Software, Inc.) Chinese hamster ovary (CHO-K1) cells expressing human wild type-CFTR and halide sensor YFP-H148Q/I152L were constructed and grown in Dulbecco's modified Eagle's medium (DMEM) supplemented with 10% FBS, 2 mM glutamine, 100 units/ml penicillin and 100 μg/ml streptomycin. […]
pEC50: −log10 of the molar value.
Parameter Measured: pEC50

{"Molecular String": "COc1ccc(-c2ccnc3cc(C(=O)Nc4ccc(C(=O)N[C@@H](CC(=O)O)C(=O)O)cc4)nn23)cc1OC", "Measured Value": "≤ 5.70"}
{"Molecular String": "COc1ccc(-c2ccnc3cc(C(=O)NCC(=O)O)nn23)cc1OC", "Measured Value": "≤ 5.70"}
{"Molecular String": "COc1ccc(-c2ccnc3cc(C(=O)N4CCN(C(=O)c5cccc(C)c5)[C@@H](C)C4)nn23)cc1OC", "Measured Value": "> 6.70"}

The value of pEC50 recorded for COc1ccc(-c2ccnc3cc(C(=O)Nc4cc(C(F)(F)F)cc(C(F)(F)F)c4)nn23)cc1OC when tested on human wild type-CFTR (Homo sapiens, UniProt P13569) reads ≤ 5.70

---

# Tgt: human wild type-CFTR (Homo sapiens, UniProt P13569)
# Test Method Notes: Cell-based YFP assay
# Parameters: expressed in transfected cells; host or cells: CHO-K1 (Chinese hamster ovary)
# Condition Context: CHO-K1 cells expressing human wild type-CFTR and YFP-H148Q/I152L; forskolin 20 μM = 100% activity; read-out: Cell-based YFP Assay (EC50) Concentration Range
pEC50: −log10 of the molar value.
Parameter Measured: pEC50

The compound listed as COc1ccc(-c2ccnc3cc(C(=O)Nc4ccc(N5CCOCC5)cc4)nn23)cc1OC [Compound 194] shows pEC50 equal to > 6.70

---

Below, each entry is listed alongside its reported pEC50.
# Tgt: human wild type-CFTR (Homo sapiens, UniProt P13569)
# Test Method Notes: Cell-based YFP assay
# Design: expressed in transfected cells; host or cells: CHO-K1 (Chinese hamster ovary)
# Condition Context: CHO-K1 cells expressing human wild type-CFTR and YFP-H148Q/I152L; forskolin 20 μM = 100% activity; read-out: Cell-based YFP Assay (EC50) Concentration Range
pEC50: −log10 of the molar value.

Recorded pEC50, per entry:
{"Compound": "COc1ccc(-c2ccnc3cc(C(=O)Nc4ccc(C(=O)N5CCN(C)CC5)cc4F)nn23)cc1OC [Compound 158]", "Measured Value": "> 6.70"}
{"Compound": "COc1ccc(-c2ccnc3cc(C(=O)NCc4ccc(C(=O)O)cc4)nn23)cc1OC [Compound 94]", "Measured Value": "≤ 5.70"}
{"Compound": "COc1ccc(-c2ccnc3cc(C(=O)N[C@H]4CC[C@@H](C(=O)OCCCN5CCOCC5)CC4)nn23)cc1OC [Compound 196]", "Measured Value": "5.70 to 6.70"}

The compound listed as COc1ccc(-c2ccnc3cc(C(=O)Nc4ccc(CN5CCOCC5)cc4)nn23)cc1OC [Compound 244] shows pEC50 equal to > 6.70

The compound listed as CCOc1ccc(NC(=O)c2cc3nccc(-c4ccc(OC)c(OC)c4)n3n2)cc1 [Compound 3] shows pEC50 equal to > 6.70

The compound listed as CCN(CC)CCCNC(=O)c1ccc(NC(=O)c2cc3nccc(-c4ccc(OC)c(OC)c4)n3n2)cc1 [Compound 222] shows pEC50 equal to ≤ 5.70

The compound listed as COc1ccc(-c2ccnc3cc(C(=O)N4CCNC(C)(C)C4)nn23)cc1OC [Compound 182] shows pEC50 equal to ≤ 5.70

The compound listed as COc1ccc(-c2ccnc3cc(C(=O)N4CCN(C(=O)c5ccc(C)cc5)[C@@H](C)C4)nn23)cc1OC [Compound 351] shows pEC50 equal to > 6.70

The compound listed as COc1ccc(-c2ccnc3cc(C(=O)Nc4ccc(C(=O)N5CCOCC5)cc4C)nn23)cc1OC [Compound 127] shows pEC50 equal to 5.70 to 6.70

The compound listed as COc1ccc(-c2ccnc3cc(C(=O)NCc4ccc(N5CCOCC5)cc4)nn23)cc1OC [Compound 246] shows pEC50 equal to 5.70 to 6.70

---

# Tgt: human wild type-CFTR (Homo sapiens, UniProt P13569)
# Test Method Notes: Cell-based YFP assay
# Parameters: expressed in transfected cells; host or cells: CHO-K1 (Chinese hamster ovary)
# Condition Context: CHO-K1 cells expressing human wild type-CFTR and YFP-H148Q/I152L; forskolin 20 μM = 100% activity; read-out: Cell-based YFP Assay (EC50) Concentration Range
Parameter Measured: EC50

{"Compound": "COc1ccc(-c2ccnc3cc(C(=O)Nc4ccc(C(=O)N5CCN(C)CC5)c(Cl)c4)nn23)cc1OC", "Tgt": "human wild type-CFTR (Homo sapiens, UniProt P13569)", "Measured Value": "200 to 2000 nM"}
{"Compound": "COc1ccc(-c2ccnc3cc(C(=O)N4CCN(C(=O)c5ccccc5C)[C@@H](C)C4)nn23)cc1OC", "Tgt": "human wild type-CFTR (Homo sapiens, UniProt P13569)", "Measured Value": "< 200 nM"}
{"Compound": "COc1ccc(-c2ccnc3cc(C(=O)Nc4ccc(N5CCN(C(=O)OC(C)(C)C)CC5)cc4)nn23)cc1OC", "Tgt": "human wild type-CFTR (Homo sapiens, UniProt P13569)", "Measured Value": "< 200 nM"}
{"Compound": "COc1ccc(-c2ccnc3cc(C(=O)N4CCN(C(=O)c5ccoc5)[C@@H](C)C4)nn23)cc1OC", "Tgt": "human wild type-CFTR (Homo sapiens, UniProt P13569)", "Measured Value": "< 200 nM"}
{"Compound": "CCC[C@H]1CN(C(=O)c2cc3nccc(-c4ccc(OC)c(OC)c4)n3n2)CCN1C(=O)c1ccccc1", "Tgt": "human wild type-CFTR (Homo sapiens, UniProt P13569)", "Measured Value": "< 200 nM"}

The value of EC50 recorded for COc1ccc(-c2ccnc3cc(C(=O)N4CCOCC4)nn23)cc1OC when tested on human wild type-CFTR (Homo sapiens, UniProt P13569) reads ≥ 2000 nM

The value of EC50 recorded for COc1ccc(-c2ccnc3cc(C(=O)N4C[C@H](C)NC[C@@H]4C)nn23)cc1OC when tested on human wild type-CFTR (Homo sapiens, UniProt P13569) reads 200 to 2000 nM

The value of EC50 recorded for COC(=O)c1ccc(NC(=O)c2cc3nccc(-c4ccc(OC)c(OC)c4)n3n2)cc1OC when tested on human wild type-CFTR (Homo sapiens, UniProt P13569) reads < 200 nM

The value of EC50 recorded for COc1ccc(-c2ccnc3cc(C(=O)N4CCN(C(=O)OC(C)(C)C)C(C)(C)C4)nn23)cc1OC when tested on human wild type-CFTR (Homo sapiens, UniProt P13569) reads < 200 nM

The value of EC50 recorded for COC(=O)[C@H](C)NC(=O)c1ccc(NC(=O)c2cc3nccc(-c4ccc(OC)c(OC)c4)n3n2)cc1 when tested on human wild type-CFTR (Homo sapiens, UniProt P13569) reads < 200 nM

The value of EC50 recorded for COc1ccc(-c2ccnc3cc(C(=O)N4CCN(C(=O)c5cccnc5)[C@@H](C)C4)nn23)cc1OC when tested on human wild type-CFTR (Homo sapiens, UniProt P13569) reads < 200 nM

The value of EC50 recorded for COc1ccc(-c2ccnc3cc(C(=O)Nc4ccc(N(C)C)cn4)nn23)cc1OC when tested on human wild type-CFTR (Homo sapiens, UniProt P13569) reads < 200 nM

The value of EC50 recorded for COC(=O)c1ccc(NC(=O)c2cc3nccc(-c4ccc(OC)c(OC)c4)n3n2)cc1Cl when tested on human wild type-CFTR (Homo sapiens, UniProt P13569) reads < 200 nM

The value of EC50 recorded for COc1ccc(-c2ccnc3cc(C(=O)N[C@H]4CC[C@H](C(=O)N5CCN(c6ccccn6)CC5)CC4)nn23)cc1OC when tested on human wild type-CFTR (Homo sapiens, UniProt P13569) reads 200 to 2000 nM

The value of EC50 recorded for COC(=O)c1ccc(NC(=O)c2cc3nccc(-c4ccc(OC)cc4)n3n2)cc1 when tested on human wild type-CFTR (Homo sapiens, UniProt P13569) reads ≥ 2000 nM

The value of EC50 recorded for O=C(Nc1ccc(O)cc1)c1cc2nccc(-c3ccc(O)c(O)c3)n2n1 when tested on human wild type-CFTR (Homo sapiens, UniProt P13569) reads 200 to 2000 nM

The value of EC50 recorded for CCCCOc1ccc(NC(=O)c2cc3nccc(-c4ccc(OC)c(OC)c4)n3n2)cc1 when tested on human wild type-CFTR (Homo sapiens, UniProt P13569) reads < 200 nM

The value of EC50 recorded for COc1ccc(-c2ccnc3cc(C(=O)N(C)c4ccc(C(=O)N5CCN(C)CC5)cc4)nn23)cc1OC when tested on human wild type-CFTR (Homo sapiens, UniProt P13569) reads ≥ 2000 nM

The value of EC50 recorded for COc1ccc(-c2ccnc3cc(C(=O)Nc4ccc(OC(=O)[C@@H](NC(=O)OC(C)(C)C)C(C)C)cc4)nn23)cc1OC when tested on human wild type-CFTR (Homo sapiens, UniProt P13569) reads < 200 nM

The value of EC50 recorded for COc1ccc(-c2ccnc3cc(C(=O)Nc4cccc(C(=O)N5CCOCC5)c4)nn23)cc1OC when tested on human wild type-CFTR (Homo sapiens, UniProt P13569) reads < 200 nM

The value of EC50 recorded for COc1ccc(-c2ccnc3cc(C(=O)Nc4ccc(C(=O)N[C@H](C)C(=O)O)cc4)nn23)cc1OC when tested on human wild type-CFTR (Homo sapiens, UniProt P13569) reads ≥ 2000 nM
